Where do these numbers come from? They come from patent EP0183129A1.

- Tested on: Bacteroides fragilis GM 7000
- test.protocol: In vitro antibacterial activity, MIC (standard strain)
- Type: cell-based
- conditions.used: GM7000; Bacteroides fragilis GM 7000; 10^6 cells/ml; standard strain; read-out: MIC
Counter-ions that a name gives are not always drawn.
quantity.name: log10 of MIC (log10 of the value in µg/mL)
Note: values are log10 of MIC expressed in µg/mL.

>  <compound>
CCNCC1CCN(c2c(F)cc3c(=O)c(C(=O)O)cn(C4CC4)c3c2F)C1 (centres unmarked) [Example 2, hydrochloride]

>  <log10 of MIC>
0.19

$$$$

For each of the compounds below, state log10 of MIC.
1. NCC1CCN(c2c(F)cc3c(=O)c(C(=O)O)cn(C4CC4)c3c2Br)C1 (centres unmarked)
2. CN(C)CC1CCN(c2c(F)cc3c(=O)c(C(=O)O)cn(C4CC4)c3c2F)C1 (centres unmarked)
3. CCn1cc(C(=O)O)c(=O)c2cc(F)c(N3CCNCC3)cc21 [NFLX, Norfloxacin, reference compound]

-1.00
-0.41
1.40

For each of the compounds below, state log10 of MIC.
1. NCC1CCN(c2c(F)cc3c(=O)c(C(=O)O)cn(C4CC4)c3c2F)C1 (centres unmarked) [Example 1, hydrochloride]
2. CNCC1CCN(c2c(F)cc3c(=O)c(C(=O)O)cn(C4CC4)c3c2F)C1 (centres unmarked) [Example 8, hydrochloride]
3. NCC1CCN(c2c(F)cc3c(=O)c(C(=O)O)cn(C4CC4)c3c2Cl)C1 (centres unmarked) [Example 14, hydrochloride]
4. CN(C)CC1CCN(c2c(F)cc3c(=O)c(C(=O)O)cn(C4CC4)c3c2Cl)C1 (centres unmarked)

[-0.11, -0.11, -1.00, -1.00]

====

- Test system: S. faecalis IID 682
- test.protocol: In vitro antibacterial activity, MIC (standard strain)
- Assay type: cell-based
- conditions.used: Enterococcus faecalis, IID682; S. faecalis IID 682; 10^6 cells/ml; standard strain; read-out: MIC
Counter-ions that a name gives are not always drawn.
quantity.name: MIC (µg/mL)
One number for each entry, in µg/mL.

Completed entries (count: 5):
>  <compound>
CC(C)NCC1CCN(c2c(F)cc3c(=O)c(C(=O)O)cn(C4CC4)c3c2F)C1.Cl (stereo not shown)

>  <MIC (µg/mL)>
0.39

$$$$
>  <compound>
NCC1CCN(c2c(F)cc3c(=O)c(C(=O)O)cn(C4CC4)c3c2Cl)C1 (stereo not shown) [Example 14, hydrochloride]

>  <MIC (µg/mL)>
0.05

$$$$
>  <compound>
CCNCC1CCN(c2c(F)cc3c(=O)c(C(=O)O)cn(C4CC4)c3c2Br)C1 (stereo not shown)

>  <MIC (µg/mL)>
0.05

$$$$
>  <compound>
CCNCC1CCN(c2c(F)cc3c(=O)c(C(=O)O)cn(C4CC4)c3c2Cl)C1 (stereo not shown)

>  <MIC (µg/mL)>
0.05

$$$$
>  <compound>
CCNCC1CCN(c2c(F)cc3c(=O)c(C(=O)O)cn(C4CC4)c3c2F)C1 (stereo not shown) [Example 2, hydrochloride]

>  <MIC (µg/mL)>
0.2

$$$$

For each of the compounds below, state MIC.
1. CN(C)CC1CCN(c2c(F)cc3c(=O)c(C(=O)O)cn(C4CC4)c3c2Cl)C1 (stereo not shown)
2. CCNCC1CCN(c2cc3c(cc2F)c(=O)c(C(=O)O)cn3C2CC2)C1.Cl (stereo not shown)

1. 0.1
2. 0.39
